system: Muscle tissue; assay: Biodistribution in ICR mouse muscle at 5 to 10 uCi, iv after 30 mins; assay type: ADME, organism-based; conditions: in vivo, 0.5 h
// Not fulfilled strictly below 1 % ID/g in Drug uptake; Fulfilled otherwise

For orientation, consider the following solved cases.
- molecular.string: "CNc1ccc(/C=C/c2cnc(OCCO)c([125I])c2)cc1"
  qualitative.label: "Not fulfilled"
- molecular.string: "CNc1ccc(/C=C/c2cnc(OCCOCCOCCF)c([125I])c2)cc1"
  qualitative.label: "Fulfilled"
- molecular.string: "OCCOc1ncc(/C=C/c2ccc(O)cc2)cc1[125I]"
  qualitative.label: "Not fulfilled"

Attention now turns to another entry.
Item CN(C)c1ccc(/C=C/c2cnc(OCCO)c([125I])c2)cc1 with Drug uptake of 1 % ID/g or above?
Fulfilled
